tested on: Saccharomyces cerevisiae; assay: protein stability index of tFT-peptide fusion (C-terminal peptide) (PSI (0-1 scale)); higher = more stable (slower turnover); conditions: genetic background: wild type; temperature: 30 C;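 note: PSI is a weighted mean of sequencing reads over stability bins, variants kept only with over 10 reads, mCherry proximal and sfGFP distal, peptide attached via GGGS linker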
Endpoint: protein stability index
One number for each entry.

Past entries and their recorded results:
INSERT INTO measurements (sequence_record, system_under_test, endpoint, meas_value) VALUES
  ('GLVSCWIDPSMA', 'Saccharomyces cerevisiae', 'protein stability index', 0.714),
  ('SSIEAGFSSIVI', 'Saccharomyces cerevisiae', 'protein stability index', 0.685),
  ('PLRAHLYRPSVP', 'Saccharomyces cerevisiae', 'protein stability index', 0.69),
  ('PPIPSLPPASFP', 'Saccharomyces cerevisiae', 'protein stability index', 0.69),
  ('SGLPLLSSYATR', 'Saccharomyces cerevisiae', 'protein stability index', 0.72),
  ('VVEYCEGKAVYF', 'Saccharomyces cerevisiae', 'protein stability index', 0.695);

Required: protein stability index, one value per sequence below.
1. SSTDLLDLALLV
2. SCCSLCKAVRNL
3. KKKKKQTKGKNK
4. TCAGTGSTHLSR

Ans.
[0.718, 0.718, 0.688, 0.688]

Required: protein stability index, one value per sequence below.
1. RTHLVRRHGEAR
2. SVPRPLSRPPFL
3. PPRGPPPPPADP
4. LSPGCLFLLPFL
5. VLKYSVQHREFS

Ans.
1. 0.697
2. 0.697
3. 0.7
4. 0.701
5. 0.685

====

tested on: Saccharomyces cerevisiae; assay: protein stability index of tFT-peptide fusion (C-terminal peptide) (PSI (0-1 scale)); higher = more stable (slower turnover); conditions: genetic background: wild type; temperature: 30 C
Endpoint: protein stability index

INSERT INTO results (sequence_record, endpoint, meas_value) VALUES
  ('FRYRLACRPIYQ', 'protein stability index', 0.616);

Required: protein stability index, one value per sequence below.
1. GQVSVGAVGSFE
2. VGASRFRLSNCF
3. LHLGRLVHGGVD
4. IGRWHCPDLPRH
5. GLAELLLTKPTV

Ans.
0.642
0.677
0.673
0.653
0.652

Required: protein stability index, one value per sequence below.
1. PSHPPRHCPPAA
2. GGGGGRGGVVVR

Ans.
1: 0.663; 2: 0.682

Required: protein stability index, one value per sequence below.
1. PSRRFLPEKRSL
2. QRRRQEKRKKQD
3. RGGGQAKAPAGD

Ans.
0.678
0.654
0.657

Required: protein stability index, one value per sequence below.
1. SLLLPPPPPSPH
2. LRSMSPPPHSLA
3. RCHAFGEWLRGW
4. FLSFIALLPFTS
5. SLIDPLGNLFNS
6. SSRFNVAPGGCR

Ans.
1: 0.731; 2: 0.688; 3: 0.733; 4: 0.675; 5: 0.752; 6: 0.745

====

tested on: Saccharomyces cerevisiae; experiment: protein stability index of tFT-peptide fusion (C-terminal peptide) (PSI (0-1 scale)); higher = more stable (slower turnover); details: genetic background: wild type; temperature: 30 C
For each entry below, report its protein stability index value.

INSERT INTO results (sequence_record, meas_value) VALUES
  ('VCLFSVCLWFVS', 0.141),
  ('QLIDVGLLNCAA', 0.45),
  ('HLYITGIIRKIT', 0.165),
  ('PRHERPPRDNGH', 0.654),
  ('LGKSTLYMALNN', 0.309),
  ('LSFFFWFIFSLC', 0.325),
  ('PCNVLWYSLFLF', 0.19);

Let us examine a further case.
Documented protein stability index of `GGGWCEMLIVVG` : 0.367
